Target: ADORA2A (Homo sapiens, UniProt P29274)
Construct: purchased Promega (in-house HiBiT-GPCR construct library, NanoBRET)
Sequence (P29274 whole entry): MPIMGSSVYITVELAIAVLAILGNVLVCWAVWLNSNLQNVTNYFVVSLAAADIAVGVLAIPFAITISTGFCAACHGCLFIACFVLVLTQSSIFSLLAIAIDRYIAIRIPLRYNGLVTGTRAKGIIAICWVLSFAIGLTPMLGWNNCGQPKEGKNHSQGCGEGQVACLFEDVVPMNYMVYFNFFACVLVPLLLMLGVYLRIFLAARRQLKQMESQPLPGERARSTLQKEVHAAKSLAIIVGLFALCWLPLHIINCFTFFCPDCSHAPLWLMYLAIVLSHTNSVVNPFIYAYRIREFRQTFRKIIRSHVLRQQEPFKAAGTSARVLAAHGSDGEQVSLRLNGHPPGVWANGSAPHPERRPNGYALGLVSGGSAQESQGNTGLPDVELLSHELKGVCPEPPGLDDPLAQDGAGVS
Experiment: NanoBRET screen HiBiT-ADORA2A in HEK293
Type: binding
Details: ADORA2A; tracer 1μM
measure: NanoBRET Fold Response

molecule	reported-result
COc1ccccc1N1CCN(CCCCN2C(=O)c3ccc(CNC(=O)CCOCCNC(=O)c4ccc(CNC(=O)CCc5ccc6n5[B-](F)(F)[N+]5=C(c7ccc[nH]7)C=CC5=C6)cc4)cc3C2=O)CC1	0.91
O=C(CCc1ccc2n1[B-](F)(F)[N+]1=C(c3ccc[nH]3)C=CC1=C2)NCCOCCOCCNC(=O)OCCOCCN1CCN(C2=Nc3ccccc3Sc3ccccc32)CC1	0.91
N#CN=C(NCCCOc1cccc(CN2CCCCC2)c1)NCCNC(=O)CCOCCOCCOCCOCCNC(=O)CCc1ccc2n1[B-](F)(F)[N+]1=C(c3ccc[nH]3)C=CC1=C2	0.99
CC(C)N(CC[C@H](c1ccccc1)c1cc(CCNC(=O)CCOCCOCCOCCOCCNC(=O)CCc2ccc3n2[B-](F)(F)[N+]2=C(c4ccc[nH]4)C=CC2=C3)ccc1O)C(C)C	0.95
Cc1nc2n(c(=O)c1CCN1CCC(c3noc4cc(F)ccc34)CC1)CCCC2OC(=O)NCCOCCOCCOCCOCCNC(=O)CCc1ccc2n1[B-](F)(F)[N+]1=C(c3ccc[nH]3)C=CC1=C2 (stereo not shown)	0.98
Cc1cc2c(s1)Nc1ccccc1N=C2N1CCN(CCCNC(=O)CCOCCOCCOCCOCCNC(=O)CCc2ccc3n2[B-](F)(F)[N+]2=C(c4ccc[nH]4)C=CC2=C3)CC1	0.93
O=C(CCc1ccc2n1[B-](F)(F)[N+]1=C(c3ccc[nH]3)C=CC1=C2)NCc1ccc(C(=O)NCCOCCC(=O)N[C@@H]2CC[C@@]3(O)[C@H]4Cc5ccc(O)c6c5[C@@]3(CCN4CC3CC3)[C@H]2O6)cc1 [Naltrexone-3-NB590]	0.58
CC(C)N(CC[C@H](c1ccccc1)c1cc(CCNC(=O)c2ccc(CNC(=O)CCc3ccc4n3[B-](F)(F)[N+]3=C(c5ccc[nH]5)C=CC3=C4)cc2)ccc1O)C(C)C	1.01
CCCn1c(=O)c2[nH]c(-c3ccc(OCC(=O)NCCNC(=O)CCOCCNC(=O)c4ccc(CNC(=O)CCc5ccc6n5[B-](F)(F)[N+]5=C(c7ccc[nH]7)C=CC5=C6)cc4)cc3)nc2n(CCC)c1=O	9.18
O=C(CCOCCOCCOCCOCCNC(=O)CCc1ccc2n1[B-](F)(F)[N+]1=C(c3ccc[nH]3)C=CC1=C2)NCCCN1CCN(C2=Nc3ccccc3Oc3ccc(Cl)cc32)CC1	1.11
